Entry source: ChEMBL document CHEMBL3861985

// values below are reported EC50
- TARGET OR SYSTEM: Peroxisome proliferator-activated receptor delta (Homo sapiens)
- Sequence (Q03181 whole entry, the tested form may be a part): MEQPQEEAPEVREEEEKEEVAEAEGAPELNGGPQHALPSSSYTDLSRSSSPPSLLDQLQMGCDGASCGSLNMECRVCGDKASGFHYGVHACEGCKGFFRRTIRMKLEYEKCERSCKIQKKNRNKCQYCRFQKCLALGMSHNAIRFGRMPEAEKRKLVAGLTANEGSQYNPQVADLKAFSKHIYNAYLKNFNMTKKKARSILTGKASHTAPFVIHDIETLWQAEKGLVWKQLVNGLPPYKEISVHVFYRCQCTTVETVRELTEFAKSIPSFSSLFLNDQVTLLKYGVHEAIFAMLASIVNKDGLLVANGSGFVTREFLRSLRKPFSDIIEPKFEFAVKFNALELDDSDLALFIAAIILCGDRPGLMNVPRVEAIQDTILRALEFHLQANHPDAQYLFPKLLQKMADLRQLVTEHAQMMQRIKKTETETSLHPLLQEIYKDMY
- MEASUREMENT NOTES: Agonist activity at GAL4-tagged human PPARdelta ligand binding domain chimeric receptor expressed in HEK293 cells after 24 hrs by luciferase reporter gene assay
Output spec: scalar in nM, unitless text.

Here are 3 compounds together with their reported answers.
[
  {
    "COMPOUND": "CC(=O)N[C@@H](C)c1nc(-c2ccc(Oc3ccccc3)cc2)no1",
    "TARGET OR SYSTEM": "Peroxisome proliferator-activated receptor delta (Homo sapiens)",
    "EC50 (nM)": 290
  },
  {
    "COMPOUND": "CC(=O)NC(C)c1nc(-c2ccc(Oc3ccc(O)cc3)cc2)no1 (stereo not given)",
    "TARGET OR SYSTEM": "Peroxisome proliferator-activated receptor delta (Homo sapiens)",
    "EC50 (nM)": 1000
  },
  {
    "COMPOUND": "COc1ccc(Oc2ccc(-c3noc(C(C)NC(C)=O)n3)cc2)cc1 (stereo not given)",
    "TARGET OR SYSTEM": "Peroxisome proliferator-activated receptor delta (Homo sapiens)",
    "EC50 (nM)": 390
  }
]

### Prompt For the compound CCOc1ccc(Oc2ccc(-c3noc(C(C)NC(C)=O)n3)cc2)cc1 (stereo not given) , what EC50 is on record?
### Response 370

### Prompt Which EC50 value belongs to CC(=O)NC(C)c1nc(-c2ccc(Oc3ccccc3)cc2)no1 (racemic) ?
### Response 320

====

- TARGET OR SYSTEM: Acetyl-CoA carboxylase 2 (Homo sapiens)
- Sequence (O00763 whole entry): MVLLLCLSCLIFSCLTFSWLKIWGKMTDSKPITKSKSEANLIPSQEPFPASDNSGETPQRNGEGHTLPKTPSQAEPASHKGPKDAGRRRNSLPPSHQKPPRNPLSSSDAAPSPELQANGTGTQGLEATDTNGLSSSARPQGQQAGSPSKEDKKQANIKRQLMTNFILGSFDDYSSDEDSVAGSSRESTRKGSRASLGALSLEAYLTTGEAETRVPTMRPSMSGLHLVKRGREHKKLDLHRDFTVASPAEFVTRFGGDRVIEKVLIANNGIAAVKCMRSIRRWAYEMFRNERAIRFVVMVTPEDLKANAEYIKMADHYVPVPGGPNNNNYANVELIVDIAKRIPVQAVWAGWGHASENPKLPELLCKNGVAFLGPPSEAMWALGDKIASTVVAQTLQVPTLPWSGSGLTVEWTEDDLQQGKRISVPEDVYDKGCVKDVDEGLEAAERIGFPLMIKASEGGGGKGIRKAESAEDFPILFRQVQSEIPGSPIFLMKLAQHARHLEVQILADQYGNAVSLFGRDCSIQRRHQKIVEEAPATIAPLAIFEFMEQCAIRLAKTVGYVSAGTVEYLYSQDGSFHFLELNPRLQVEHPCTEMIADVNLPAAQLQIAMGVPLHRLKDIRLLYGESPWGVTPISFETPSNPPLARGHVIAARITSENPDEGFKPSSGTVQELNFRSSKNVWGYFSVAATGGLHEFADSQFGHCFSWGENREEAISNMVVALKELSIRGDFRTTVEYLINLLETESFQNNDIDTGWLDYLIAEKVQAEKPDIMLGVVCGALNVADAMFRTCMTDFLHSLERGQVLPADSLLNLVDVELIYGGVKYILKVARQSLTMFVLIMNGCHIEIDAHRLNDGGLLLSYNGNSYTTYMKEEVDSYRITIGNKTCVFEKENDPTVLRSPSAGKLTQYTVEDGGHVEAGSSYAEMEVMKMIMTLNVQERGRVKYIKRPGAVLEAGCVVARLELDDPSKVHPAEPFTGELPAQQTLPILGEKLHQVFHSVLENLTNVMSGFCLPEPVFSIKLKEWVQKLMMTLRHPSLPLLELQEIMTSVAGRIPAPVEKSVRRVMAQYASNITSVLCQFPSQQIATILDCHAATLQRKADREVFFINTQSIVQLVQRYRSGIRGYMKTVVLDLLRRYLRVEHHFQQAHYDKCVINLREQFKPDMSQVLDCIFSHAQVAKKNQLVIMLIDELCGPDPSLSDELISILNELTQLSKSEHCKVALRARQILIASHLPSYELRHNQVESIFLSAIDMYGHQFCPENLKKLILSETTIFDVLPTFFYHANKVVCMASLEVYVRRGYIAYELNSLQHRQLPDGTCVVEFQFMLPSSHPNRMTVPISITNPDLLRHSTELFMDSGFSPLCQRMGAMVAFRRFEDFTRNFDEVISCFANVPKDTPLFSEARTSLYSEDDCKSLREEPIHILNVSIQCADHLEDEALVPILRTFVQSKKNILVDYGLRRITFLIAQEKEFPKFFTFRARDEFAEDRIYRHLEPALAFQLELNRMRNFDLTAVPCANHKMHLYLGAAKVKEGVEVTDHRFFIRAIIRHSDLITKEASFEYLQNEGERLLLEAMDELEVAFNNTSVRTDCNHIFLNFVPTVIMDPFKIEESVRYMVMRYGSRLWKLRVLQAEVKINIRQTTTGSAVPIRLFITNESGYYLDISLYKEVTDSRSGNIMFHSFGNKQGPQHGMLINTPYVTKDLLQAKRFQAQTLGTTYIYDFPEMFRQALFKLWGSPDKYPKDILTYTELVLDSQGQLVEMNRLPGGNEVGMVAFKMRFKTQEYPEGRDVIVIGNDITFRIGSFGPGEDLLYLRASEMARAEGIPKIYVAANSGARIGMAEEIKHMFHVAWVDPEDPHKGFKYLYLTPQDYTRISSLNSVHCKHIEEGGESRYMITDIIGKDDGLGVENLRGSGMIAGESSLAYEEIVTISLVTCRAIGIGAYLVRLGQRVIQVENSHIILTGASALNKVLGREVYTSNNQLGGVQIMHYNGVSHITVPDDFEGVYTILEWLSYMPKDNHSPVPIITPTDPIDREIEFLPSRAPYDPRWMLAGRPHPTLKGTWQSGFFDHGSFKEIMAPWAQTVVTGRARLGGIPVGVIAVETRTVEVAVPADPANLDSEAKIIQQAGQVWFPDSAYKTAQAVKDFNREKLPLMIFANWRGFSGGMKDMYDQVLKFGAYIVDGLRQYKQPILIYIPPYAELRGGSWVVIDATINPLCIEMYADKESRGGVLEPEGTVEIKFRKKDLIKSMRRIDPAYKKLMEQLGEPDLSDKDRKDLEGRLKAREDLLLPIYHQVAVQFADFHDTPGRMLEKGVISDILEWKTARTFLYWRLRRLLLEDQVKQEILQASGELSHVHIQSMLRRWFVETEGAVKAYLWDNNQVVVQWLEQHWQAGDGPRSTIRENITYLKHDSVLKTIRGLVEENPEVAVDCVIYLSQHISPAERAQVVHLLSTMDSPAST
- MEASUREMENT NOTES: Inhibition of full length recombinant C-terminal His-tagged human ACC2 expressed in baculovirus infected sf9 cells using acetyl-CoA as substrate after 90 mins by ATP consumption assay
Each entry below lists one item and its recorded pIC50 value.
As a rule, pIC50 stands for the negative log10 of the concentration, concentration in M.

Recorded results for 3 molecules are shown here.
[
  {
    "MOLECULE": "CC(=O)NC(C)c1nc(-c2ccc(Oc3ccccc3)cc2)no1 (racemic)",
    "pIC50": 6.54
  },
  {
    "MOLECULE": "CC(=O)N[C@@H](C)c1nc(-c2ccc(Oc3ccccc3)cc2)no1",
    "pIC50": 6.66
  },
  {
    "MOLECULE": "CC(=O)NC(C)c1nc(-c2ccc(Oc3ccc(Oc4ccccc4)cc3)cc2)no1 (racemic)",
    "pIC50": 7.32
  }
]

### Prompt Find the recorded pIC50 belonging to CCOc1ccc(Oc2ccc(-c3noc(C(C)NC(C)=O)n3)cc2)cc1 (stereo unspecified) and report it.
### Response 6.38

### Prompt Consider the molecule shown here: CCCOc1ccc(Oc2ccc(-c3noc(C(C)NC(C)=O)n3)cc2)cc1 (stereo unspecified) What is its recorded pIC50?
### Response 6.21

### Prompt What pIC50 value was documented for this molecule, `CC(=O)N[C@H](C)c1nc(-c2ccc(Oc3ccc(Oc4ccccc4)cc3)cc2)no1` ?
### Response 5.12

### Prompt Entry `CC(=O)N[C@@H](C)c1nc(-c2ccc(Oc3ccc(Oc4ccccc4)cc3)cc2)no1` : reported pIC50 = ?
### Response 7.80

### Prompt Which pIC50 value belongs to `CC(=O)NCc1nc(-c2ccc(Oc3ccc(OC(C)C)cc3)cc2)no1` ?
### Response 5.96

### Prompt Name the recorded pIC50 for CC(=O)NC(C)c1nc(-c2ccc(Oc3ccc(OC(C)C)cc3)cc2)no1 (stereo unspecified) .
### Response 7.00

### Prompt Fill in the blank: the reported pIC50 of CCCCCCOc1ccc(Oc2ccc(-c3noc(C(C)NC(C)=O)n3)cc2)cc1 (stereo unspecified) is ____.
### Response 6.59

### Prompt Given the molecule CC(=O)NC(C)C#Cc1ccc(Oc2ccc(OC(C)C)cc2)cc1 (stereo unspecified) , what is its reported pIC50?
### Response 7.96
